Reported MIC values follow for various compounds
System: super sensitive Gram-negative Escherichia coli (E. coli) BAS849
Test: Antibacterial activity, microbroth dilution MIC, E. coli BAS849
Type: cell-based
Details: Escherichia coli; E. coli BAS849, microbroth dilution; read-out: MIC, BAS849
Where a name gives a salt, the structure may show the parent alone.
MEASURED ENDPOINT: MIC

>>> df
                                    compound         data_value
 0  CCc1c(-c2ccc(Br)cc2)[nH]c(=O)c(C(=O)O)c1O [Cpd 79]          < 1 µg/mL
 1  CCc1cc(C(=O)O)c(=O)[nH]c1-c1ccc(N2C[C@@H]3[C@H](C2)[C@H]3N(Cc2ccccc2)Cc2ccccc2)cc1 [Cpd 176, hydrochloride]  12.5 to 150 µg/mL
 2  CCc1cc(C(=O)O)c(=O)[nH]c1-c1ccc(N2CCC(N3CCCC3)C2)cc1 (stereo not drawn) [Cpd 175]          < 1 µg/mL
 3  CCc1c(-c2cnc(N3CCCC3)cn2)[nH]c(=O)c(C(=O)O)c1O [Cpd 313]          < 1 µg/mL
 4  Cc1cc(C(=O)O)c(=O)[nH]c1-c1ccc(N(C)C)cc1 [Cpd 4]          < 1 µg/mL
 5  CCc1cc(C(=O)O)c(=O)[nH]c1-c1ccc(N2C[C@@H](N)[C@@H](OC)C2)cc1.Cl [Cpd 135]          < 1 µg/mL
 6  CCc1c(-c2ccc(N3CCC(N(C)C)C3)cc2F)[nH]c(=O)c(C(=O)O)c1O (stereo not drawn) [Cpd 291]     1 to 3.5 µg/mL
 7  CCc1c(-c2ccc(N3CCC(n4ccnn4)C3)cc2)[nH]c(=O)c(C(=O)O)c1O (stereo not drawn) [Cpd 287]          < 1 µg/mL
 8  Cc1cc(C(=O)O)c(=O)[nH]c1-c1ccc(N2CCOCC2)c(F)c1 [Cpd 89]  12.5 to 150 µg/mL
 9  CCc1cc(C(=O)O)c(=O)[nH]c1-c1ccc(N2CCC(F)(F)C2)cc1 [Cpd 144]          < 1 µg/mL
10  CCc1cc(C(=O)O)c(=O)[nH]c1-c1ccc(N2CC[C@H](N=[N+]=[N-])C2)cc1 [Cpd 130]          < 1 µg/mL
11  CCc1cc(C(=O)O)c(=O)[nH]c1-c1ccc(N2CC(NC(=O)N(C)CC(=O)O)C2)cc1 [Cpd 167]     1 to 3.5 µg/mL
12  CN(C)c1ccc(-c2ccc(C(=O)O)c(=O)[nH]2)cc1 [Cpd 310]  12.5 to 150 µg/mL
13  CCc1cc(C(=O)O)c(=O)[nH]c1-c1ccc(N2CCOCC2)cc1 [Cpd 110]          < 1 µg/mL
14  CCc1cc(C(=O)O)c(=O)[nH]c1-c1ccc(N2CCC(n3ccnn3)C2)cc1 (stereo not drawn) [Cpd 230]          < 1 µg/mL
15  CCc1c(-c2cnc(N(C)C)cn2)[nH]c(=O)c(C(=O)O)c1O [Cpd 312]          < 1 µg/mL
16  CCc1c(-c2ccc(N3CCC(N(C)C)C3)cc2)[nH]c(=O)c(C(=O)O)c1O.Cl (stereo not drawn) [Cpd 275]          < 1 µg/mL
17  CCc1cc(C(=O)O)c(=O)[nH]c1-c1ccccc1N1CCCCC1 [Cpd 31]  12.5 to 150 µg/mL
